# Species on record: Rattus norvegicus
# protocol: Open TG-GATES - Regimen: Daily Repeat
# Format: toxicity, organism-based, Sprague-Dawley
# Set-up: regimen Daily Repeat, gender Male, age 6 weeks
# settings: in vivo, po, 0 mg/kg, 72 h, tissue Blood, route gavage, dose level Control, time 3 day
measurement label: WBC (x10_2/uL)

>  <molecule>
CCC1(c2ccccc2)C(=O)NC(=O)NC1=O

>  <measurement label>
WBC

>  <val>
129.8

$$$$
>  <molecule>
CC(C)N(CCC(C(N)=O)(c1ccccc1)c1ccccn1)C(C)C (stereo unspecified) [DISOPYRAMIDE]

>  <measurement label>
WBC

>  <val>
99.7

$$$$
>  <molecule>
CN(C)CCC=C1c2ccccc2COc2ccccc21 [DOXEPIN]

>  <measurement label>
WBC

>  <val>
81.7

$$$$
>  <molecule>
OCCOCCN1CCN(C(c2ccccc2)c2ccc(Cl)cc2)CC1 (stereo unspecified) [HYDROXYZINE]

>  <measurement label>
WBC

>  <val>
77.5

$$$$
>  <molecule>
CCc1oc2ccccc2c1C(=O)c1cc(Br)c(O)c(Br)c1

>  <measurement label>
WBC

>  <val>
113.8

$$$$
>  <molecule>
CN(C)C(=N)N=C(N)N

>  <measurement label>
WBC

>  <val>
114.3

$$$$
>  <molecule>
CC[C@H]1[C@@H]2C[C@H]3[C@@H]4N(C)c5ccccc5[C@]45C[C@@H]([C@@H]2[C@H]5O)N3[C@@H]1O

>  <measurement label>
WBC

>  <val>
104.3

$$$$
>  <molecule>
CCCCc1oc2ccccc2c1C(=O)c1cc(I)c(OCCN(CC)CC)c(I)c1

>  <measurement label>
WBC

>  <val>
91.2

$$$$
>  <molecule>
O=NN(CCCl)C(=O)NC1CCCCC1

>  <measurement label>
WBC

>  <val>
131.9

$$$$
>  <molecule>
CC1=C(CC(=O)O)c2cc(F)ccc2/C1=C\c1ccc([S+](C)[O-])cc1 (stereo unspecified)

>  <measurement label>
WBC

>  <val>
84.9

$$$$
>  <molecule>
ClC(Cl)(Cl)Cl [CARBON TETRACHLORIDE]

>  <measurement label>
WBC

>  <val>
96.4

$$$$
